- Procedure text: in vitro
- Condition: human, hela cells, % viability
We begin with a simple list: items and their reported viability at 28.5 h, 10 µM.
Observable: viability at 28.5 h, 10 µM

- Molecule: "Cc1ccccc1-c1noc(CSc2nnc(-c3ccncc3)n2-c2ccc(F)cc2)n1"
  Assay result: "96.8%"
- Molecule: "COc1cccc(CC(=O)NCCNc2cccc(F)c2C#N)c1"
  Assay result: "78.5%"
- Molecule: "COc1ccc(C(C)C)cc1-c1cn2ccnc2c(N2CCN(c3ccncc3)CC2)n1"
  Assay result: "116%"
- Molecule: "S=c1[nH]nc(Cc2cccc3ccccc23)n1-c1ccccc1"
  Assay result: "97.3%"
- Molecule: "CSc1ncc(Cl)c(C(=O)NCCc2ccc(S(N)(=O)=O)cc2)n1"
  Assay result: "104%"
- Molecule: "O=C(CSc1nc2ccccc2[nH]1)c1ccccc1"
  Assay result: "92.9%"
- Molecule: "O=C(NCCN1CCOCC1)C1CC2CCC1C2 (centres unmarked)"
  Assay result: "115%"
- Molecule: "Cc1nn(CC(=O)NC(C)C)c(=O)c2cc3sccc3n12"
  Assay result: "104%"
- Molecule: "CN(C)c1ccc(Nc2cc(Cl)nc3ccnn23)cc1"
  Assay result: "98.3%"
- Molecule: "COCc1nc(C)c(C(=O)NC2CCCN(c3ccn(C)n3)C2=O)s1 (centres unmarked)"
  Assay result: "92.2%"
- Molecule: "O=C(O)CN1C(=O)C(O)=C(C(=O)c2ccc(Cl)cc2)C1c1ccccc1[N+](=O)[O-] (centres unmarked)"
  Assay result: "98.5%"
- Molecule: "O=C(O)CCCC(=O)N1N=C(c2cccs2)CC1c1cn(-c2ccccc2)nc1-c1ccccc1 (centres unmarked)"
  Assay result: "90.3%"
- Molecule: "CC(=O)Nc1cccc(-c2cnc3[nH]c(=O)n(C4CC4)c3n2)c1"
  Assay result: "103%"
- Molecule: "Cc1ccc(-c2nc3ccccc3[nH]2)cc1NC(=O)CSc1ccc(Cl)cc1"
  Assay result: "98.3%"
- Molecule: "CC(C)(C)CC(=O)N1CCCC1c1n[nH]cc1-c1ccncc1 (centres unmarked)"
  Assay result: "88.5%"
- Molecule: "Cc1n[nH]c(=O)c2nc(-c3ccc(=O)[nH]n3)[nH]c12"
  Assay result: "102%"
- Molecule: "COc1ccc(Cl)cc1N1CCN(CC2CCCCC2)CC1"
  Assay result: "77.8%"
- Molecule: "O=C(Nc1cccc(C(F)(F)F)c1)c1nc[nH]n1"
  Assay result: "89.4%"
- Molecule: "CCOC(=O)c1sc(NS(=O)(=O)Cc2ccccc2[N+](=O)[O-])nc1C"
  Assay result: "98.5%"
- Molecule: "C[N+]1(C)CCN(C(=O)CCC(=O)N2CC[N+](C)(C)CC2)CC1 [CBK278200I]"
  Assay result: "94.4%"
- Molecule: "CC(=O)Nc1ccc(C(=O)N(Cc2ccccn2)CC2CCCO2)cn1 (centres unmarked)"
  Assay result: "83.7%"
- Molecule: "Cc1cc(Cl)cc(Cl)c1S(=O)(=O)Nc1nc(-c2cccc([N+](=O)[O-])c2)cs1"
  Assay result: "111%"
- Molecule: "Cc1ccc(C#N)c(NCc2ccccc2CN2CCCC2CO)n1 (centres unmarked)"
  Assay result: "75.5%"
- Molecule: "COC(=O)c1ccccc1NC(=O)COc1ccc(Br)c(C)c1"
  Assay result: "89.4%"
- Molecule: "O=C(OCC=C=CSc1ccc([N+](=O)[O-])cc1)c1ccc(F)cc1"
  Assay result: "117%"
- Molecule: "O=C(O)c1ccc(NS(=O)(=O)c2ccc(Br)c3ccccc23)cc1O"
  Assay result: "86.5%"
- Molecule: "COc1ccc(-c2nc(NC(=O)C3CCC(OC)CC3)cnc2-c2ccc(F)cc2)cc1 (centres unmarked)"
  Assay result: "88.4%"
- Molecule: "COc1ccc(CCC(=O)c2cnc3sc4c(n23)CCCCC4)cc1"
  Assay result: "109%"
- Molecule: "Cc1ccc(-c2nc3ccccc3c(=O)o2)cc1C"
  Assay result: "97.4%"
- Molecule: "C=Cn1ncc(CN(CCN(C)C)Cc2ccc(C)o2)c1C"
  Assay result: "110%"
- Molecule: "Cc1c(S(=O)(=O)N2CCN(C)CC2)sc2ccc(C(C)C)cc12"
  Assay result: "90.1%"
- Molecule: "C#CCOc1cn([C@H]2C[C@@H](O)[C@@H](CO)O2)c(=O)[nH]c1=O"
  Assay result: "91.7%"
- Molecule: "COc1ccc(-c2nc(NC(=O)CSc3n[nH]c(N)n3)ns2)cc1"
  Assay result: "81.8%"
- Molecule: "O=C(N1CCC(Oc2nccnc2OCc2ccc(Cl)cc2F)CC1)C(F)(F)F"
  Assay result: "89.5%"
- Molecule: "NC(=O)c1cccc(CN2CCOC3(CCN(C(=O)OCc4ccccc4)CC3)C2)c1 [CBK161100T]"
  Assay result: "90.4%"
- Molecule: "COc1ccc(C(C)NC(=O)c2cc(-c3ccc(F)cc3)[nH]n2)cc1 (centres unmarked)"
  Assay result: "87%"
- Molecule: "Cc1nnc(NCCN2CCOCC2)nc1O"
  Assay result: "98.5%"
- Molecule: "COc1ccc(C(=O)NCC(=O)NCCOC(=O)c2c(-c3c(F)cccc3Cl)noc2C)cc1"
  Assay result: "99.4%"
